Test: in vivo
Design: species or system nude mice
Conditions: nude, mouse, iv, total radioactivity
Where a SMILES comes first, the peptide text is derived from it. Side-chain parts run from the residue outwards. [ ]: non-standard residue; d: D form. The star is where a group is joined. DOTA = O=C(O)CN1CCN(CC(=O)O)CCN(CC(=O)*)CCN(CC(=O)O)CC1; PEG6 = NCCOCCOCCOCCOCCOCCOCCC(=O)O; Tle = CC(C)(C)[C@H](N)C(=O)O; Nlys = NCCCCNCC(=O)O
recorded endpoint: tissue to tissue ratio at 1 h
Numbers only.

Sure, the documented tissue to tissue ratio at 1 h for CC(C)C[C@H](NC(=O)[C@@H](NC(=O)[C@H](Cc1ccc(O)cc1)NC(=O)[C@@H]1CCCN1C(=O)[C@H](CCCCN)NC(=O)CN(CCCCN)C(=O)[C@@H](N)CCCCNC(=O)CCOCCOCCOCCOCCOCCOCCNC(=O)CN1CCN(CC(=O)O)CCN(CC(=O)O)CCN(CC(=O)O)CC1)C(C)(C)C)C(=O)O [[^177Lu]NT127, metal not drawn] (H-K([PEG6-DOTA])[Nlys]KPY[Tle]L-OH) is 30
